Assay: Determination of solubility (saturation concentration)
Assay type: physicochemical
Settings: aqueous buffer, thermodynamic from solid; phosphoric acid solution pH 7.0, 24 hours, shaker at 37° C.
Where a name gives a salt, the structure may show the parent alone.
MEASURED_QUANTITY: solubility thermodynamic at 24 h (µg/mL)

# MOLECULE, MEASURED_QUANTITY, NUMERIC_READOUT
records = [
    ("COc1cc2c(Oc3ccc4[nH]c(C)cc4c3F)ccnc2cc1OCC1(N)CC1 [Example 1, Anlotinib dihydrochloride]", "solubility thermodynamic at 24 h", 0.3),
]

Values from patent US11731955B2
